test system: HCT-15 colon; assay: NCI-60 one-dose screen, 48 h (100 = growth as untreated, 0 = no growth, -100 = all killed); conditions: 10 µM unless noted
This is part of a sample that, as a whole, favours compounds with a hit. Of some 83,000 tested, about 20% had one in any assay.
endpointName: growth (%)
Answer with a number only, understood to be in %.

Under HCT-15 colon: growth value of CC/C(=C(\c1ccc(Cl)cc1)c1ccc(OCCN2CCCCC2)cc1)c1ccc(O)cc1 ?
2.22

Provide the documented growth with HCT-15 colon as the system for Nc1cc(-c2ccc(Cl)cc2)nn1-c1nnc(/C=C/c2ccco2)c(=O)[nH]1
38.1

Return growth measured with HCT-15 colon given this compound: COc1cc2ncnc(Nc3ccc(S(=O)(=O)Nc4nccs4)cc3)c2cc1OCCCN1CCCC1
101

Give the reported growth for c1ccc(-c2ccc3c(c2)C2(CCNCC2)CN3)cc1 (system: HCT-15 colon).
99.6

For the record C1CCC(N2CN3c4nonc4N4CN(C5CCCCC5)CN5c6nonc6N(C2)C3C45)CC1 (stereo not given) , what value of growth is listed for HCT-15 colon?
84.5

Value wanted: growth (HCT-15 colon) of entry CN(C)CCn1c(=O)c2ccccc2n2nc3ccccc3c12
84.1

Value wanted: growth (HCT-15 colon) of entry CNCC[C@H](Oc1cccc2ccccc12)c1cccs1
101

Give growth (HCT-15 colon) of the following compound: Cc1[nH]n(-c2cccc(Cl)c2)c(=O)c1/C=C1\C=c2ccccc2=CC1=O
49.9

Lookup: growth / HCT-15 colon / COc1ccc(/C=C(\C(=O)NCc2cccnc2)S(=O)(=O)c2ccccc2)cc1OC
28.3

Observed growth on HCT-15 colon for COc1ccc2c(c1)CC[C@@H]1[C@@H]2CC[C@]2(C)C3C(=CC(COC(C)=O)C4C(=O)N(c5ccc(Cl)cc5)C(=O)C43)C[C@@H]12 (stereo not given in full) , please.
94.3

Given the entry O=C(/C=C/c1cn(-c2ccccc2)nc1-c1ccccc1)CCC(=O)NO , what growth was observed with HCT-15 colon?
110

Notebook entry, HCT-15 colon assay: growth of CCCCn1c(NC(C)=O)c(S(=O)(=O)c2ccccc2)c2nc3ccccc3nc21 = ?
101

Provide value of growth for this record tested with HCT-15 colon: O=c1oc2c(cc1-c1ccccc1)c(=O)[nH]c1ccccc12
98.2

Recall the recorded growth for COc1ccc(OC)c(Nc2nnc(-c3cc(OC)c(OC)c(OC)c3)o2)c1 with HCT-15 colon and state it.
99

Enter reported growth observed with HCT-15 colon for COC1C(O)CC(OC2CC(OC3CC(O[C@@H]4C(=O)c5c(cc6cc(OC7CC(OC8CC(O)C(O)C(C)O8)C(O)C(C)O7)c(C)c(O)c6c5O)CC4[C@H](OC)C(=O)O)OC(C)C3O)OC(C)C2O)OC1C (stereo not given in full)
48.6

Record lookup: for HCT-15 colon, what growth belongs to CC(C)(C)c1ccc(C(=O)N/N=C/c2ccc(O)cc2O)cc1 ?
14.1

Form: Entry = Cn1c(=O)c2[nH]c(SC/C(=N/O)c3ccc(Br)cc3)nc2n(C)c1=O | System = HCT-15 colon | growth = ____
76.4

What is its growth for HCT-15 colon? Entry: C=CC(CC(c1ccccc1)(c1ccccc1)c1ccccc1)N(CC)CC (stereo not given)
41.4

Query the reported growth for HCT-15 colon; item: CC1(C)CC[C@]23CC[C@]4(C)[C@H](CC[C@@H]5[C@@]6(C)C/C(=C/O)C(=O)C(C)(C)[C@@H]6CC[C@]54C)[C@H]2[C@H]1OC3
110

Please provide the recorded growth for COC(=O)c1nc(-c2ccccc2)oc1S(=O)(=O)N1CCCC(C)C1 (stereo not given) , tested on HCT-15 colon.
37.2

Source: PubChem BioAssay (NCI)
